Data origin: patent US20100158926A1

- assay.system: human ErbB2 ECD-myc/His fusion protein (human)
- test.description: SPR, medium resolution Biacore 2000; mAb captured on goat anti-human IgG, ErbB2(ECD)-cMyc/His injected; 1:1 fit
readout.name: kon (M⁻¹ s⁻¹)
Give your result in M⁻¹ s⁻¹ as a bare value.

Reference set, count: 3
binder: monoclonal antibody 1.96 (antibody, V domains shown) VH: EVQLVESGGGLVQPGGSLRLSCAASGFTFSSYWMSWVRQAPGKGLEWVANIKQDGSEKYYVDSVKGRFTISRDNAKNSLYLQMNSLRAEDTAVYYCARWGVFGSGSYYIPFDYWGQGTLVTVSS VL: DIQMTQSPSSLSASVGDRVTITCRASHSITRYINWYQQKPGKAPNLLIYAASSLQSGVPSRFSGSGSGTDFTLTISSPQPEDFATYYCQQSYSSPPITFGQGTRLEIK
unit.abbrev: M⁻¹ s⁻¹
result.number: 103000

binder: monoclonal antibody 1.39 (antibody, V domains shown) VH: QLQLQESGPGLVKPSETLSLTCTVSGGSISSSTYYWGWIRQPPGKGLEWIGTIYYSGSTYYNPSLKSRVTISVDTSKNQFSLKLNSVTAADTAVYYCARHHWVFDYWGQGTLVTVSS VL: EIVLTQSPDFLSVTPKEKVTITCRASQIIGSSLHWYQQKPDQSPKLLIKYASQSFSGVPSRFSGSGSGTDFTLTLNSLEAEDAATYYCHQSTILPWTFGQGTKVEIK
unit.abbrev: M⁻¹ s⁻¹
result.number: 115000

binder: monoclonal antibody 1.20 (antibody, V domains shown) VH: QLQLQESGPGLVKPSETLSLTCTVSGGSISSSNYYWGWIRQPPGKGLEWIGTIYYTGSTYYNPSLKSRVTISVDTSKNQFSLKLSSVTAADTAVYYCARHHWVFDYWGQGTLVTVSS VL: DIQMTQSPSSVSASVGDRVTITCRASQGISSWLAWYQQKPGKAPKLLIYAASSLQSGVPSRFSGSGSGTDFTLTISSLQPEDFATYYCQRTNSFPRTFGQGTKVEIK
unit.abbrev: M⁻¹ s⁻¹
result.number: 95000

Query binder follows.
Reported kon for monoclonal antibody 1.14.1 (antibody, V domains shown) VH: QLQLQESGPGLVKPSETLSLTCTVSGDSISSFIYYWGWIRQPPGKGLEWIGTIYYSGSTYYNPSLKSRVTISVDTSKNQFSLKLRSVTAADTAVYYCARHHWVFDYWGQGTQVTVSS VL: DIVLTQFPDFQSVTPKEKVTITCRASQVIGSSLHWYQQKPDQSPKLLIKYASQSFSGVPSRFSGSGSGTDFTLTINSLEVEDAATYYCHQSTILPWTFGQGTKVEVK was 102000
